Values compiled from paper PMC10425983.

Molecular target: CYP2C19 (Homo sapiens, UniProt P33261)
Sequence (P33261 whole entry): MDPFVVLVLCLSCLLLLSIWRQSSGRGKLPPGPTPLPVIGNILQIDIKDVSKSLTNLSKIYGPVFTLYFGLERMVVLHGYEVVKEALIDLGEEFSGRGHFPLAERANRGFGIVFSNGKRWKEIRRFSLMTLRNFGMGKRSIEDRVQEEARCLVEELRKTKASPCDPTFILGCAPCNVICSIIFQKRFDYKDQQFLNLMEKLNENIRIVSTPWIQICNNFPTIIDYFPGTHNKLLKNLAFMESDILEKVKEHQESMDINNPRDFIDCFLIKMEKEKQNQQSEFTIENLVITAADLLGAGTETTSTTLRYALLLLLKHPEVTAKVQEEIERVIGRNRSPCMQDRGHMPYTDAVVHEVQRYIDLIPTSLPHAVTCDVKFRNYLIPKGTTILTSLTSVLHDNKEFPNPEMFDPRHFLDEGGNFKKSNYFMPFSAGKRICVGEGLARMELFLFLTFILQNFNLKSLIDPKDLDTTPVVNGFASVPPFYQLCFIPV
property_name: IC50 (µM)
# unit: µM | format: bare number

So what IC50 did Fc1ccc(Nc2c(-c3ccccn3)nc3ccc(C4CC4)cn23)cc1 [Compound 3p] get with CYP2C19 (Homo sapiens, UniProt P33261)?
1.8

###

Assay: Thermodynamic aqueous solubility
Type: physicochemical
A collection of compounds and their measured aq. sol.
Express your answer in µM, writing the number without its unit.

Examples with answers:
>>> print(df.to_string())
                               given_smiles  numeric_readout
0   Fc1ccc(Nc2c(-c3ccccn3)nc3cccc(F)n23)cc1               26
1  COc1cccn2c(Nc3ccc(F)cc3)c(-c3ccccn3)nc12                2
2  Fc1ccc(Nc2c(-c3ccccn3)nc3ccc(-c4cnoc4)cn23)cc1                3

Query: aq. sol.; subject: "Fc1ccc(Nc2c(-c3ccccn3)nc3sccn23)cc1"
76

Suppose we examine the compound "COc1ccn2c(N)c(-c3ccccn3)nc2c1" ; what aq. sol. value has been reported?
290

###

Experiment: Human liver microsome intrinsic clearance
Format: in vitro ADME
Details: human, human liver microsomes, pH 7.4, HLM clint
property_name: microsomal CLint at 3 µM (µL/min/mg)
The response must be a number in µL/min/mg with no trailing unit.

Previously resolved entries follow.
>>> print(df.to_string())
                           given_smiles  numeric_readout
0  Fc1ccc(Nc2c(-c3ccccn3)nc3cnccn23)cc1              202
1   Fc1ccc(Nc2c(-c3ccccn3)nc3sccn23)cc1              270

Now take the following compound into account.
GET /values?readout=microsomal CLint at 3 µM&item= "CSc1ccc2nc(-c3ccccn3)c(Nc3ccc(F)cc3)n2c1"
247

###

Target: UniProt Q12809
Sequence (Q12809 whole entry): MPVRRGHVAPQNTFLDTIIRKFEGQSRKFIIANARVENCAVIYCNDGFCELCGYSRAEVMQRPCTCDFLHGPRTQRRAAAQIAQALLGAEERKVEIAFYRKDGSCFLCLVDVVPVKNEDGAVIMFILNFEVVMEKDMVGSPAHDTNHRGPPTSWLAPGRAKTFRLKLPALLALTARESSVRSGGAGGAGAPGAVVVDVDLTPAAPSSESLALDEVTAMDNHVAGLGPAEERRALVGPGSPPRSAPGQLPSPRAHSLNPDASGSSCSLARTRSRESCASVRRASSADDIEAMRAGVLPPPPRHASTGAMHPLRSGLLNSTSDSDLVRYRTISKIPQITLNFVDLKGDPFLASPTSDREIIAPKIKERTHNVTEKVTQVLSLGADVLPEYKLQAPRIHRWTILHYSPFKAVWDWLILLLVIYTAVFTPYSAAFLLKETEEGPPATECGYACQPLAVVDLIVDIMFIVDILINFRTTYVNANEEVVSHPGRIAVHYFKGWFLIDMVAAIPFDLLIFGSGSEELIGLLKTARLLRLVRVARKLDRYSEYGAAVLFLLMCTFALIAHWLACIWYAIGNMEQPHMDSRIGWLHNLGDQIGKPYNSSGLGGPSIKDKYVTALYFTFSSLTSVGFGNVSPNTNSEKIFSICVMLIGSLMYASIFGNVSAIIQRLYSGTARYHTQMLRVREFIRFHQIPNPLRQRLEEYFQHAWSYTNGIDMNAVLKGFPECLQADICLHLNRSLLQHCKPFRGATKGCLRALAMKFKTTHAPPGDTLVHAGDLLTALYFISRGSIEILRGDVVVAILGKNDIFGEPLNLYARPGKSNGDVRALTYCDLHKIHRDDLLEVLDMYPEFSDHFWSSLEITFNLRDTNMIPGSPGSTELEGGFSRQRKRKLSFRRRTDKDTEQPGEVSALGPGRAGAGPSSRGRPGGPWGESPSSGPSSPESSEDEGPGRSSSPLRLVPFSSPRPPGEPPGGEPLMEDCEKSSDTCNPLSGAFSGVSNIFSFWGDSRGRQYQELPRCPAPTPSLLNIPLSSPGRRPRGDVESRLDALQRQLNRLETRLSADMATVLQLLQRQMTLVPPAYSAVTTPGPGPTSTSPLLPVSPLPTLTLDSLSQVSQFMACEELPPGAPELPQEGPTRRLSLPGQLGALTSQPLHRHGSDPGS
property_name: IC50

Entry "Fc1ccc(Nc2c(-c3ccccn3)nc3ccc(C4CC4)cn23)cc1" : reported IC50 = ?
12.6 µM

###

A collection of compounds and their measured aq. sol.
Assay: Thermodynamic aqueous solubility
Type: physicochemical
API: value field is a number in µM; no unit string.

Given c1ccc(-c2cn3ccccc3n2)nc1 [Compound 11a, 2-(Pyridin-2-yl)imidazo[1,2-a]pyridine] , state its recorded aq. sol..
828

Fill blank: measured aq. sol. of the compound Fc1ccc(Nc2c(-c3ccccn3)nc3cnccn23)cc1 [Compound 3j] is ____.
61

Need aq. sol., item Fc1ccc(Nc2c(-c3ccccn3)nc3ccc(C4CC4)cn23)cc1 [Compound 3p]
0.7

Give its aq. sol. value. Item: Fc1ccc(Nc2c(-c3ccccn3)nc3cc(F)ccn23)cc1 [Compound 3h]
0.1

Recorded aq. sol. of Fc1ccc(Nc2c(-c3ccccn3)nc3cccnn23)cc1 [Compound 3d] , please.
68
